tested on: hCA XII KO HT29/DOX cells; assay: doxorubicin cytotoxicity enhancement assay in hCA XII KO HT29/DOX cells; assay type: cell-based; settings: Homo sapiens, HT-29
Value Type: IC50 (nM)
Number in nM, nothing else.

## Input hCA XII KO HT29/DOX cells / IC50 / COc1cccc2c1C(=O)c1c(O)c3c(c(O)c1C2=O)C[C@@](O)(C(=O)CO)C[C@@H]3O[C@H]1C[C@H](N)[C@H](O)[C@H](C)O1 : value?
## Output 1300

====

This listing pairs compounds with measured melting point.
Counter-ions that a name gives are not always drawn.

In [3]: df
Out[3]:
                                   compound         result
0  COc1cc(C(=O)OCCCCCCCN(CCCOC(=O)c2cc(OC)c(OC)c(OC)c2)CCCOc2ccc3ccc(=O)oc3c2)cc(OC)c1OC (as salt: hydrochloride)    74 to 77 °C
1  COc1cc(C(=O)OCCCCCN(CCCOC(=O)c2cc(OC)c(OC)c(OC)c2)CCCOc2ccc3ccc(=O)oc3c2)cc(OC)c1OC (as salt: hydrochloride)    84 to 87 °C
2  COc1cc(/C=C/C(=O)OCCCN(CCCCCCCOC(=O)c2c3ccccc3cc3ccccc23)CCCOc2ccc3ccc(=O)oc3c2)cc(OC)c1OC (as salt: hydrochloride)  107 to 110 °C
3  COc1cc(C(=O)OCCCCCCN(CCCOC(=O)c2c3ccccc3cc3ccccc23)CCCOc2ccc3ccc(=O)oc3c2)cc(OC)c1OC (as salt: hydrochloride)  148 to 151 °C

As a next step, examine the compound that follows.
## Input Which melting point reading was recorded for the compound COc1cc(/C=C/C(=O)OCCCCCN(CCCOC(=O)c2c3ccccc3cc3ccccc23)CCCOc2ccc3ccc(=O)oc3c2)cc(OC)c1OC (as salt: hydrochloride) ?
## Output 94 to 97 °C

====

test system: HT29 cells; assay: doxorubicin cytotoxicity in HT29 cells; type: cell-based; conditions: Homo sapiens, HT-29, 72 h, MTT
Value Type: pIC50
Remember the convention: pIC50 equals -log10 of concentration in molar.

## Input Consider the compound shown here: COc1cccc2c1C(=O)c1c(O)c3c(c(O)c1C2=O)C[C@@](O)(C(=O)CO)C[C@@H]3O[C@H]1C[C@H](N)[C@H](O)[C@H](C)O1 [DOX, doxorubicin] What is its recorded pIC50?
## Output 5.86

====

Ki, UniProt:P00915, per-entry values.
Sequence (P00915 whole entry): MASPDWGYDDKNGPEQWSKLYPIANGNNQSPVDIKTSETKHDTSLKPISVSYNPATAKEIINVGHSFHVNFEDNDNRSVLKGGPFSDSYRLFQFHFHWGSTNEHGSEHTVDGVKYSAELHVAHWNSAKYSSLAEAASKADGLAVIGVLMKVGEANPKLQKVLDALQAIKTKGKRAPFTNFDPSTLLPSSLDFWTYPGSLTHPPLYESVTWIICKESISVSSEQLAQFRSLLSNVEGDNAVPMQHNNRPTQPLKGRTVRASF

Below: 5 compounds and their reported Ki.
>>> df
                                test_smiles  value_type   result
0  COc1cc(C(=O)OCCCN(CCCCCCCOC(=O)c2c3ccccc3cc3ccccc23)CCCOc2ccc3ccc(=O)oc3c2)cc(OC)c1OC          Ki  > 10 µM
1  COc1cc(/C=C/C(=O)OCCCCCN(CCCOC(=O)c2cc(OC)c(OC)c(OC)c2)CCCOc2ccc3ccc(=O)oc3c2)cc(OC)c1OC          Ki  > 10 µM
2  COc1cc(C(=O)OCCCCCN(CCCOC(=O)c2cc(OC)c(OC)c(OC)c2)CCCOc2ccc3ccc(=O)oc3c2)cc(OC)c1OC          Ki  > 10 µM
3  COc1cc(/C=C/C(=O)OCCCCCN(CCCOC(=O)c2c3ccccc3cc3ccccc23)CCCOc2ccc3ccc(=O)oc3c2)cc(OC)c1OC          Ki  > 10 µM
4  COc1cc(C(=O)OCCCCCCCN(CCCOC(=O)c2c3ccccc3cc3ccccc23)CCCOc2ccc3ccc(=O)oc3c2)cc(OC)c1OC          Ki  > 10 µM

## Input Item: COc1cc(/C=C/C(=O)OCCCN(CCCCCOC(=O)c2cc(OC)c(OC)c(OC)c2)CCCOc2ccc3ccc(=O)oc3c2)cc(OC)c1OC Test system: UniProt:P00915 Read-out: Ki Value: ?
## Output > 10 µM

Measured values drawn from paper PMC9661477 for this set.
